- TARGET_OF_ASSAY: Serine/threonine-protein kinase B-raf (Mus musculus, UniProt P28028, V600E)
- Sequence (P28028 whole entry, looked up, stated change not applied): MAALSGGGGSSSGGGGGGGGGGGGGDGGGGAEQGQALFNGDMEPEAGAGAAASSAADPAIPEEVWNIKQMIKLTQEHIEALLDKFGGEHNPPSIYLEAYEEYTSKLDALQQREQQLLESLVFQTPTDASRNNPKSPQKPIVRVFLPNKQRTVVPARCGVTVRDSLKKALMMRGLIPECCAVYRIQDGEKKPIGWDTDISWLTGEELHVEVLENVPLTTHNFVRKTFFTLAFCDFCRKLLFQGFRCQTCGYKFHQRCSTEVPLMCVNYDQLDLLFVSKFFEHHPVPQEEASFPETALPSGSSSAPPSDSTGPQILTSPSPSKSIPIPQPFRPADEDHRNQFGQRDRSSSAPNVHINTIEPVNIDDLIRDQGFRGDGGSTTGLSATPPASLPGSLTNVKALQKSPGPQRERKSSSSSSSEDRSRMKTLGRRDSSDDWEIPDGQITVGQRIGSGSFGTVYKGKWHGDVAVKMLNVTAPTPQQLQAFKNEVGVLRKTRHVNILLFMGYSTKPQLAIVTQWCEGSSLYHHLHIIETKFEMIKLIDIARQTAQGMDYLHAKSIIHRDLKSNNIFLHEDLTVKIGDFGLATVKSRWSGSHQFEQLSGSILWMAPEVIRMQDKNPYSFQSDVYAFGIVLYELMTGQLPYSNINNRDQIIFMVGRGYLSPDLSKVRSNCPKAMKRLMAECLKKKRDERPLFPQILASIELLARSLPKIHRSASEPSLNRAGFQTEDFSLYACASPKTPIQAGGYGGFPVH
- ASSAY_NAME: Inhibition of mouse full length GST-tagged BRAF V600E mutant using recombinant human full length N-terminal His-tagged MEK1 as substrate preincubated for 1 hr followed by substrate addition measured after 25 mins
QUANTITY_MEASURED: IC50 (µM)

MOLECULE | QUANTITY_MEASURED | VAL
COc1cccc(C2=NN(C(=S)Nc3ccccc3)C(c3ccc4c(c3)OCCO4)C2)c1 (configuration not stated) | IC50 | 0.06

A = S=C(Nc1ccccc1)N1N=C(c2ccccc2)CC1c1ccc2c(c1)OCCO2 (configuration not stated)
B = Cc1ccc(C2=NN(C(=S)Nc3ccccc3)C(c3ccc4c(c3)OCCO4)C2)cc1C (configuration not stated)
C = COc1ccccc1C1=NN(C(=S)Nc2ccccc2)C(c2ccc3c(c2)OCCO3)C1 (configuration not stated)
(Q) Sort entries by IC50 from minimum to maximum value. Provide your answer as the labels ordered per the instruction.
(A) A, C, B
(A: 0.82 µM, C: 12.1 µM, B: 38.9 µM)

* * *

- ASSAY_NAME: Cytotoxicity against human LO2 cells assessed as decrease in cell viability after 48 hrs by MTT assay
- Type: cell-based, L02
Catalogue of GI50 at 48 h readings, one per entry.

Worked cases, GI50 at 48 h given:
COMPOUND | VAL
S=C(Nc1ccccc1)N1N=C(c2ccc(OCc3ccccc3)cc2)CC1c1ccc2c(c1)OCCO2 (stereo not drawn) | > 200 µM
S=C(Nc1ccccc1)N1N=C(c2ccc(Br)cc2)CC1c1ccc2c(c1)OCCO2 (stereo not drawn) | 188 µM

Consider the additional compound presented here.
(Q) Item under review: COc1cccc(C2=NN(C(=S)Nc3ccccc3)C(c3ccc4c(c3)OCCO4)C2)c1 (stereo not drawn) . Reported GI50 at 48 h?
(A) > 200 µM

* * *

- TARGET_OF_ASSAY: Serine/threonine-protein kinase B-raf (Mus musculus, UniProt P28028, V600E)
- ASSAY_NAME: Inhibition of mouse full length GST-tagged BRAF V600E mutant using recombinant human full length N-terminal His-tagged MEK1 as substrate preincubated for 1 hr followed by substrate addition measured after 25 mins
pIC50: −log10 of the molar value.
QUANTITY_MEASURED: pIC50

COMPOUND | TARGET_OF_ASSAY | QUANTITY_MEASURED | VAL
Cc1ccc(C2=NN(C(=S)Nc3ccccc3)C(c3ccc4c(c3)OCCO4)C2)cc1 (centres undefined) | Serine/threonine-protein kinase B-raf (Mus musculus, UniProt P28028, V600E) | pIC50 | 5.37
S=C(Nc1ccccc1)N1N=C(c2ccc(OCc3ccccc3)cc2)CC1c1ccc2c(c1)OCCO2 (centres undefined) | Serine/threonine-protein kinase B-raf (Mus musculus, UniProt P28028, V600E) | pIC50 | 8.00
O=[N+]([O-])c1ccc(C2=NN(C(=S)Nc3ccccc3)C(c3ccc4c(c3)OCCO4)C2)cc1 (centres undefined) | Serine/threonine-protein kinase B-raf (Mus musculus, UniProt P28028, V600E) | pIC50 | 4.24

I = FC(F)(F)c1ccc(C2=NN(C(=S)Nc3ccccc3)C(c3ccc4c(c3)OCCO4)C2)cc1 (centres undefined)
II = S=C(Nc1ccccc1)N1N=C(c2ccc(Cl)cc2)CC1c1ccc2c(c1)OCCO2 (centres undefined)
(Q) Looking at I and II , which one comes out lower in pIC50 terms? Give the label of your selection.
(A) II

I = S=C(Nc1ccccc1)N1N=C(c2ccc(Cl)c(Cl)c2)CC1c1ccc2c(c1)OCCO2 (centres undefined)
II = CSc1ccc(C2=NN(C(=S)Nc3ccccc3)C(c3ccc4c(c3)OCCO4)C2)cc1 (centres undefined)
(Q) Identify the entry with the larger pIC50. Options: I and II Give the label of your selection.
(A) I
(I: 4.51, II: 4.07)

a = Fc1ccc(C2=NN(C(=S)Nc3ccccc3)C(c3ccc4c(c3)OCCO4)C2)cc1 (centres undefined)
b = S=C(Nc1ccccc1)N1N=C(c2cccs2)CC1c1ccc2c(c1)OCCO2 (centres undefined)
(Q) Looking at a and b , which one comes out lower in pIC50 terms? Give the label of your selection.
(A) b
(b: 4.11, a: 4.95)

* * *

Catalogue of pIC50 readings, one per entry.
- TARGET_OF_ASSAY: Mitogen-activated protein kinase 8 (Homo sapiens, UniProt P45983)
- Sequence (P45983 whole entry): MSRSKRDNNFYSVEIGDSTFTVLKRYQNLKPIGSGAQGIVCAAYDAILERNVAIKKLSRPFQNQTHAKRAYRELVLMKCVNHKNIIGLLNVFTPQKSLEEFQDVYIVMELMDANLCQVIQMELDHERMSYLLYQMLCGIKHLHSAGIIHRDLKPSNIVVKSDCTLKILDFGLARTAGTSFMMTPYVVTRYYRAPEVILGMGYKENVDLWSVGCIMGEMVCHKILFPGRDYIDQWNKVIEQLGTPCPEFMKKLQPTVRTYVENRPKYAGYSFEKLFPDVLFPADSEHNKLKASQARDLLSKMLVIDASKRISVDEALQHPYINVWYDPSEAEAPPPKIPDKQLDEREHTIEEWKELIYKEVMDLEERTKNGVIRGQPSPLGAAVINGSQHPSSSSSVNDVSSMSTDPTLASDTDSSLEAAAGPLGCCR
- ASSAY_NAME: Inhibition of N-terminal flag-tagged JNK1 (unknown origin) expressed in baculovirus expression system after 60 mins in presence of [gamma-32P]ATP by topcount scintillation method
Here pIC50 is given on a logarithmic scale as minus log10 of the concentration in mol/L.

COMPOUND | QUANTITY_MEASURED | VAL
S=C(Nc1ccccc1)N1N=C(c2ccc(OCc3ccccc3)cc2)CC1c1ccc2c(c1)OCCO2 (stereo not drawn) | pIC50 | 4.05

(Q) Item under review: S=C(Nc1ccccc1)N1N=C(c2ccc(Br)cc2)CC1c1ccc2c(c1)OCCO2 (stereo not drawn) . Reported pIC50?
(A) 4.03

* * *

- ASSAY_NAME: Antiproliferative activity against human WM1361 cells after 48 hrs by MTT assay
- Assay type: functional
- ASSAY_SETUP: WM1361, 48 h
QUANTITY_MEASURED: GI50 (µM)
Report as a plain number; the unit µM is understood.

(Q) Item under review: Fc1ccc(C2=NN(C(=S)Nc3ccccc3)C(c3ccc4c(c3)OCCO4)C2)cc1 (configuration not stated) . Reported GI50?
(A) 65.3

(Q) Also, S=C(Nc1ccccc1)N1N=C(c2cccs2)CC1c1ccc2c(c1)OCCO2 (configuration not stated) please.
(A) 7.96

(Q) Also, FC(F)(F)c1ccc(C2=NN(C(=S)Nc3ccccc3)C(c3ccc4c(c3)OCCO4)C2)cc1 (configuration not stated) please.
(A) 123

(Q) Also, S=C(Nc1ccccc1)N1N=C(c2ccc(OCc3ccccc3)cc2)CC1c1ccc2c(c1)OCCO2 (configuration not stated) please.
(A) 8.23

(Q) Also, CSc1ccc(C2=NN(C(=S)Nc3ccccc3)C(c3ccc4c(c3)OCCO4)C2)cc1 (configuration not stated) please.
(A) 187

(Q) Also, S=C(Nc1ccccc1)N1N=C(c2ccccc2)CC1c1ccc2c(c1)OCCO2 (configuration not stated) please.
(A) 58.5

(Q) Also, S=C(Nc1ccccc1)N1N=C(c2cccc(Cl)c2)CC1c1ccc2c(c1)OCCO2 (configuration not stated) please.
(A) 153

(Q) Also, Cc1ccc(C2=NN(C(=S)Nc3ccccc3)C(c3ccc4c(c3)OCCO4)C2)cc1C (configuration not stated) please.
(A) 148

(Q) Also, S=C(Nc1ccccc1)N1N=C(c2ccc(Cl)c(Cl)c2)CC1c1ccc2c(c1)OCCO2 (configuration not stated) please.
(A) 122

(Q) Also, S=C(Nc1ccccc1)N1N=C(c2ccc(Br)cc2)CC1c1ccc2c(c1)OCCO2 (configuration not stated) please.
(A) 37.5

(Q) Also, CCCS(=O)(=O)Nc1ccc(F)c(C(=O)c2c[nH]c3ncc(-c4ccc(Cl)cc4)cc23)c1F [VEMURAFENIB] please.
(A) 20.8

* * *

- TARGET_OF_ASSAY: Serine/threonine-protein kinase B-raf (Homo sapiens)
- Sequence (P15056 whole entry): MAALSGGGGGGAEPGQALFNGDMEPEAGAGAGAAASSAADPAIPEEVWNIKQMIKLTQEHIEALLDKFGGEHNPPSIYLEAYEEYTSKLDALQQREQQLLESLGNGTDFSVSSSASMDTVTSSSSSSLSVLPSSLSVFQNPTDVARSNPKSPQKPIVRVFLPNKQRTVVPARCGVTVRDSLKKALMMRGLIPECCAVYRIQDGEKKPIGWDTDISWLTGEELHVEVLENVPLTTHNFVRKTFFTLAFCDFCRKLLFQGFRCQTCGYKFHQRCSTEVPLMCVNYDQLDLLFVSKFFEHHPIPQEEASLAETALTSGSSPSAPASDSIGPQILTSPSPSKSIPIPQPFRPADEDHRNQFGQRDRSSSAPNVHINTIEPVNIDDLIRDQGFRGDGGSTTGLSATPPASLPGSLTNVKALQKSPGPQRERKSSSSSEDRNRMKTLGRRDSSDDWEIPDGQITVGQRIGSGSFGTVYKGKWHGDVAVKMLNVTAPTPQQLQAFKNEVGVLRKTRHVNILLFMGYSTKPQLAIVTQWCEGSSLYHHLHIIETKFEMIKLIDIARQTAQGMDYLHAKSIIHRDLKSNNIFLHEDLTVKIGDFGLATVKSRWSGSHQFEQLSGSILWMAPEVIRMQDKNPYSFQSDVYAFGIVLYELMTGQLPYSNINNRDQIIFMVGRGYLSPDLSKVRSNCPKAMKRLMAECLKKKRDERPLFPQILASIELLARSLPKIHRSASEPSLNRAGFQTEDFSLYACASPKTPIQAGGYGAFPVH
- ASSAY_NAME: Inhibition of recombinant human full length GST-tagged wild type BRAF expressed in baculovirus expression system using recombinant human full length N-terminal His-tagged MEK1 as substrate preincubated for 1 hr followed by substrate addition measured after 25 mins
pIC50: −log10 of the molar value.
QUANTITY_MEASURED: pIC50

COMPOUND | pIC50
S=C(Nc1ccccc1)N1N=C(c2ccc(OCc3ccccc3)cc2)CC1c1ccc2c(c1)OCCO2 (stereo unspecified) | 5.28

1 = CSc1ccc(C2=NN(C(=S)Nc3ccccc3)C(c3ccc4c(c3)OCCO4)C2)cc1 (stereo unspecified)
2 = S=C(Nc1ccccc1)N1N=C(c2ccc(Cl)c(Cl)c2)CC1c1ccc2c(c1)OCCO2 (stereo unspecified)
(Q) Identify the entry with the larger pIC50. Options: 1 and 2 Give the label of your selection.
(A) 2

1 = S=C(Nc1ccccc1)N1N=C(c2cccs2)CC1c1ccc2c(c1)OCCO2 (stereo unspecified)
2 = S=C(Nc1ccccc1)N1N=C(c2cccc(Cl)c2)CC1c1ccc2c(c1)OCCO2 (stereo unspecified)
(Q) Looking at 1 and 2 , which one comes out lower in pIC50 terms? Give the label of your selection.
(A) 2
(2: 4.02, 1: 5.28)

A = S=C(Nc1ccccc1)N1N=C(c2ccccc2)CC1c1ccc2c(c1)OCCO2 (stereo unspecified)
B = S=C(Nc1ccccc1)N1N=C(c2ccccc2Br)CC1c1ccc2c(c1)OCCO2 (stereo unspecified)
C = FC(F)(F)c1ccc(C2=NN(C(=S)Nc3ccccc3)C(c3ccc4c(c3)OCCO4)C2)cc1 (stereo unspecified)
(Q) // ranking: key=pIC50, reverse=True Provide your answer as the labels ordered per the instruction.
(A) A, C, B
(A: 4.67, C: 4.45, B: 3.91)
